tested-on: D5 (Homo sapiens, UniProt P21918)
Sequence (P21918 whole entry): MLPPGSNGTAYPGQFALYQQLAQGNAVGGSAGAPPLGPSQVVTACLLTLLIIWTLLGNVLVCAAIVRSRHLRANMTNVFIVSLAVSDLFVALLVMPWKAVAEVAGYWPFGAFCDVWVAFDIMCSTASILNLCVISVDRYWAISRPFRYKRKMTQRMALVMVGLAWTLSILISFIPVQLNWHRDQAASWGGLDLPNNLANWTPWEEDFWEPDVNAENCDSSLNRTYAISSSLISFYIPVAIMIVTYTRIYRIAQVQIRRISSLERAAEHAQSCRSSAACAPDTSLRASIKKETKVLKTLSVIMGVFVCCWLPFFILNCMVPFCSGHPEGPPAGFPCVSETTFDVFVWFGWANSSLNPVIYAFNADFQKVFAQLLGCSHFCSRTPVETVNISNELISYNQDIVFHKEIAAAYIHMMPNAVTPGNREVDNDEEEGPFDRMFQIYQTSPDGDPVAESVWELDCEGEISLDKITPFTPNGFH
assay-comment: In vitro binding (membrane preparation), human recombinant receptors, D5
pIC50: −log10 of the molar value.
observed-property: pIC50

Incoming: # input molecule: CCCN1C[C@@H](c2ccc(N)nc2)OC[C@@H]1C ; wanted: its pIC50
Outgoing: < 5.00
